Source listed as ChEMBL document CHEMBL1212881.

- MEASUREMENT TARGET: UniProtKB P08908
pKi: −log10 of the molar value.
Returns one of fulfilled or not fulfilled; fulfilled when pKi is >= 6.

Observe how each entry below is paired with its result.
compound_smiles=FCCOc1ccccc1CN1CCN(Cc2cc3ccccc3o2)CC1 assigned_category="not fulfilled"
compound_smiles=FCCCOc1ccccc1CN1CCN(Cc2cc3ccccc3o2)CC1 assigned_category="not fulfilled"
compound_smiles=FCCOc1cccc(CN2CCN(Cc3cc4ccccc4o3)CC2)c1 assigned_category=fulfilled
compound_smiles=CCCOc1ccccc1CN1CCN(Cc2cc3ccccc3o2)CC1 assigned_category="not fulfilled"
compound_smiles=CCCOc1ccc(CN2CCN(Cc3cc4ccccc4o3)CC2)cc1 assigned_category="not fulfilled"
compound_smiles=COc1ccc(CN2CCN(Cc3cc4ccccc4o3)CC2)cc1 assigned_category="not fulfilled"
compound_smiles=CCOc1ccc(CN2CCN(Cc3cc4ccccc4o3)CC2)cc1 assigned_category="not fulfilled"
compound_smiles=CCOc1cccc(CN2CCN(Cc3cc4ccccc4o3)CC2)c1 assigned_category="not fulfilled"
compound_smiles=CCOc1ccccc1CN1CCN(Cc2cc3ccccc3o2)CC1 assigned_category=fulfilled

As a next step, examine the compound that follows.
// inclusive: pKi at least 6? input: COc1cccc(CN2CCN(Cc3cc4ccccc4o3)CC2)c1
fulfilled

* * *

- PROTOCOL NOTES: Lipophilicity, log D of the compound
- Format: physicochemical
- EXPERIMENTAL CONDITIONS: HPLC retention time
TEST READOUT: logD

Return logD (reported value) for this molecule: COc1ccc(CN2CCN(Cc3cc4ccccc4o3)CC2)cc1
3.63

* * *

// each record: one item and its pKi for 5-hydroxytryptamine receptor 2B (Homo sapiens)
Recall that pKi is obtained by taking minus log10 of the concentration measured in molar.

compound_smiles=FCCCOc1cccc(CN2CCN(Cc3cc4ccccc4o3)CC2)c1 measurement_target="5-hydroxytryptamine receptor 2B (Homo sapiens)" value_reported=6.73
compound_smiles=FCCCOc1ccccc1CN1CCN(Cc2cc3ccccc3o2)CC1 measurement_target="5-hydroxytryptamine receptor 2B (Homo sapiens)" value_reported=6.74
compound_smiles=CCOc1ccc(CN2CCN(Cc3cc4ccccc4o3)CC2)cc1 measurement_target="5-hydroxytryptamine receptor 2B (Homo sapiens)" value_reported=6.58
compound_smiles=CCCOc1ccc(CN2CCN(Cc3cc4ccccc4o3)CC2)cc1 measurement_target="5-hydroxytryptamine receptor 2B (Homo sapiens)" value_reported=6.18

Report its pKi with 5-hydroxytryptamine receptor 2B (Homo sapiens) as the test system: COc1ccc(CN2CCN(Cc3cc4ccccc4o3)CC2)cc1
Sequence (P41595 whole entry): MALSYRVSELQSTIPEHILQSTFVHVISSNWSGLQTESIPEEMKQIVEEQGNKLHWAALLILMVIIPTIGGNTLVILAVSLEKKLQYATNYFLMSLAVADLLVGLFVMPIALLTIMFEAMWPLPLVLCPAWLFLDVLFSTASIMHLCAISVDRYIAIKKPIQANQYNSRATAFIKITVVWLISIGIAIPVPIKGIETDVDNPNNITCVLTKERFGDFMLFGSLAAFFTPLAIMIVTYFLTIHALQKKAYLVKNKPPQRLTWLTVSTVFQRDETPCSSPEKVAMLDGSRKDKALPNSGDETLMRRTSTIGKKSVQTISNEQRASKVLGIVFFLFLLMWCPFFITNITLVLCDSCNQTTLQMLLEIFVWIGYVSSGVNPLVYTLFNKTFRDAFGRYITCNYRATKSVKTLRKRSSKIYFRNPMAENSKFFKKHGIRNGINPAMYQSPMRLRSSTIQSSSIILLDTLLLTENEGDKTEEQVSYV
7.82

Report its pKi with 5-hydroxytryptamine receptor 2B (Homo sapiens) as the test system: FCCOc1ccccc1CN1CCN(Cc2cc3ccccc3o2)CC1
7.24

Report its pKi with 5-hydroxytryptamine receptor 2B (Homo sapiens) as the test system: CCCOc1cccc(CN2CCN(Cc3cc4ccccc4o3)CC2)c1
6.59

* * *

- Species on record: Rattus norvegicus
- PROTOCOL NOTES: Selectivity ratio of Ki for rat sigma2 receptor to Ki rat sigma1 receptor
TEST READOUT: Ratio Ki

// worked examples, Ratio Ki included
compound_smiles=CCOc1ccccc1CN1CCN(Cc2cc3ccccc3o2)CC1 test_readout="Ratio Ki" value_reported=8
compound_smiles=COc1ccc(CN2CCN(Cc3cc4ccccc4o3)CC2)cc1 test_readout="Ratio Ki" value_reported=38
compound_smiles=FCCOc1cccc(CN2CCN(Cc3cc4ccccc4o3)CC2)c1 test_readout="Ratio Ki" value_reported=5.9
compound_smiles=CCCOc1ccccc1CN1CCN(Cc2cc3ccccc3o2)CC1 test_readout="Ratio Ki" value_reported=10
compound_smiles=COc1cccc(CN2CCN(Cc3cc4ccccc4o3)CC2)c1 test_readout="Ratio Ki" value_reported=4.9

Return Ratio Ki (reported value) for this molecule: FCCCOc1cccc(CN2CCN(Cc3cc4ccccc4o3)CC2)c1
10

Return Ratio Ki (reported value) for this molecule: CCOc1cccc(CN2CCN(Cc3cc4ccccc4o3)CC2)c1
3

Return Ratio Ki (reported value) for this molecule: c1ccc(CN2CCN(Cc3cc4ccccc4o3)CC2)cc1
46

Return Ratio Ki (reported value) for this molecule: FCCOc1ccccc1CN1CCN(Cc2cc3ccccc3o2)CC1
1.1

Return Ratio Ki (reported value) for this molecule: CCCOc1cccc(CN2CCN(Cc3cc4ccccc4o3)CC2)c1
11

Return Ratio Ki (reported value) for this molecule: CCOc1ccc(CN2CCN(Cc3cc4ccccc4o3)CC2)cc1
37

Return Ratio Ki (reported value) for this molecule: CCCOc1ccc(CN2CCN(Cc3cc4ccccc4o3)CC2)cc1
45

Return Ratio Ki (reported value) for this molecule: FCCCOc1ccccc1CN1CCN(Cc2cc3ccccc3o2)CC1
60

Return Ratio Ki (reported value) for this molecule: FCCCOc1ccc(CN2CCN(Cc3cc4ccccc4o3)CC2)cc1
51

Return Ratio Ki (reported value) for this molecule: COc1ccccc1CN1CCN(Cc2cc3ccccc3o2)CC1
0.45

* * *

pKi reference
- MEASUREMENT TARGET: UniProt:P14416
- PROTOCOL NOTES: Binding affinity to dopamine D2
Recall that pKi is obtained by taking minus log10 of the concentration measured in molar.

// worked examples, pKi included
compound_smiles=CCOc1ccc(CN2CCN(Cc3cc4ccccc4o3)CC2)cc1 value_reported=5.31
compound_smiles=COc1cccc(CN2CCN(Cc3cc4ccccc4o3)CC2)c1 value_reported=5.24
compound_smiles=FCCOc1cccc(CN2CCN(Cc3cc4ccccc4o3)CC2)c1 value_reported=5.64

Now for the compound whose pKi we want.
Return pKi (reported value) for this compound: FCCCOc1cccc(CN2CCN(Cc3cc4ccccc4o3)CC2)c1
5.53

* * *

pKi reference
- MEASUREMENT TARGET: 5-hydroxytryptamine receptor 1A (Homo sapiens, UniProt P08908)
- Sequence (P08908 whole entry): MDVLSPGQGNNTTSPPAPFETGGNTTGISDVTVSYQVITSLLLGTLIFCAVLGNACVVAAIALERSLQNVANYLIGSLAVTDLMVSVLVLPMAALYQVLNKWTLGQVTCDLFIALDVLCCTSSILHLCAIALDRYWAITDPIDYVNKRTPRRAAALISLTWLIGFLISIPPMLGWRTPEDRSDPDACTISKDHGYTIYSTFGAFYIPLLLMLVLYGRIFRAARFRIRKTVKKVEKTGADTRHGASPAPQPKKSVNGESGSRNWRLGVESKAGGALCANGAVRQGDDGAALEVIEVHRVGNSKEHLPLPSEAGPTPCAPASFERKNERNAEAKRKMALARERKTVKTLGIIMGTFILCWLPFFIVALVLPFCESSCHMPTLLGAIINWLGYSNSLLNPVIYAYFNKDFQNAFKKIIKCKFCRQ
Recall that pKi is obtained by taking minus log10 of the concentration measured in molar.

// worked examples, pKi included
compound_smiles=FCCCOc1ccc(CN2CCN(Cc3cc4ccccc4o3)CC2)cc1 value_reported=5.48
compound_smiles=COc1ccccc1CN1CCN(Cc2cc3ccccc3o2)CC1 value_reported=6.09

Now for the compound whose pKi we want.
Return pKi (reported value) for this compound: FCCCOc1cccc(CN2CCN(Cc3cc4ccccc4o3)CC2)c1
6.22

* * *

Ki reference
- MEASUREMENT TARGET: D(2) dopamine receptor (Homo sapiens)
- Sequence (P14416 whole entry): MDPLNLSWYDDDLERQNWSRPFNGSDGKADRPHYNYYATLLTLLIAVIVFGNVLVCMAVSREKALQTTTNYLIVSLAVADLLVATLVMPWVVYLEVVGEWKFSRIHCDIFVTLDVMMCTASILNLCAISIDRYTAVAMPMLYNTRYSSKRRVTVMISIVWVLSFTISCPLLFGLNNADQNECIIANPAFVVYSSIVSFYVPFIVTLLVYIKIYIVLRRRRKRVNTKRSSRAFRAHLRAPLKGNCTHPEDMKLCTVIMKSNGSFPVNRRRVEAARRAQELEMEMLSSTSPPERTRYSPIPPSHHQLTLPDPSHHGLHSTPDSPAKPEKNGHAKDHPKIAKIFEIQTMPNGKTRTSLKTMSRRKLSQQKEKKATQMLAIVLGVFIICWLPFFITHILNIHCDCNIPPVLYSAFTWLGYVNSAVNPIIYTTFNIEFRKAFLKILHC
- PROTOCOL NOTES: Binding affinity to dopamine D2

// worked examples, Ki included
compound_smiles=FCCOc1ccccc1CN1CCN(Cc2cc3ccccc3o2)CC1 test_readout=Ki value_reported="> 10 µM"
compound_smiles=COc1ccccc1CN1CCN(Cc2cc3ccccc3o2)CC1 test_readout=Ki value_reported="5.12 µM"
compound_smiles=CCOc1cccc(CN2CCN(Cc3cc4ccccc4o3)CC2)c1 test_readout=Ki value_reported="4.54 µM"

Report its Ki with D(2) dopamine receptor (Homo sapiens) as the test system: COc1ccc(CN2CCN(Cc3cc4ccccc4o3)CC2)cc1
2.7 µM

Report its Ki with D(2) dopamine receptor (Homo sapiens) as the test system: CCOc1ccccc1CN1CCN(Cc2cc3ccccc3o2)CC1
6 µM

Report its Ki with D(2) dopamine receptor (Homo sapiens) as the test system: CCCOc1cccc(CN2CCN(Cc3cc4ccccc4o3)CC2)c1
2.98 µM

* * *

- MEASUREMENT TARGET: Sigma non-opioid intracellular receptor 1 (Rattus norvegicus)
- Sequence (Q9R0C9 whole entry): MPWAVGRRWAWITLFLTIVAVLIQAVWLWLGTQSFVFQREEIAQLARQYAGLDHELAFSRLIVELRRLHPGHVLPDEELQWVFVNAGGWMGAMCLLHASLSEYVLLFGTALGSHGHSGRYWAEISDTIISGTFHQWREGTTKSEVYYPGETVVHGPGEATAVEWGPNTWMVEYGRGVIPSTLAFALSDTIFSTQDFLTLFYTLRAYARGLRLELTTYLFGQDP
- PROTOCOL NOTES: Displacement of [3H]pentazocine from sigma1 receptor in rat brain homogenate
TEST READOUT: pKi
Recall that pKi is obtained by taking minus log10 of the concentration measured in molar.

// worked examples, pKi included
compound_smiles=CCOc1cccc(CN2CCN(Cc3cc4ccccc4o3)CC2)c1 test_readout=pKi value_reported=7.10
compound_smiles=FCCCOc1cccc(CN2CCN(Cc3cc4ccccc4o3)CC2)c1 test_readout=pKi value_reported=6.63
compound_smiles=CCCOc1ccc(CN2CCN(Cc3cc4ccccc4o3)CC2)cc1 test_readout=pKi value_reported=7.27
compound_smiles=FCCCOc1ccccc1CN1CCN(Cc2cc3ccccc3o2)CC1 test_readout=pKi value_reported=8.04
compound_smiles=FCCOc1ccccc1CN1CCN(Cc2cc3ccccc3o2)CC1 test_readout=pKi value_reported=6.31

Return pKi (reported value) for this compound: CCCOc1ccccc1CN1CCN(Cc2cc3ccccc3o2)CC1
7.10

Return pKi (reported value) for this compound: COc1cccc(CN2CCN(Cc3cc4ccccc4o3)CC2)c1
7.79

Return pKi (reported value) for this compound: FCCOc1cccc(CN2CCN(Cc3cc4ccccc4o3)CC2)c1
7.30

Return pKi (reported value) for this compound: CCCOc1cccc(CN2CCN(Cc3cc4ccccc4o3)CC2)c1
6.75

Return pKi (reported value) for this compound: CCOc1ccccc1CN1CCN(Cc2cc3ccccc3o2)CC1
7.43

Return pKi (reported value) for this compound: COc1ccc(CN2CCN(Cc3cc4ccccc4o3)CC2)cc1
8.57

Return pKi (reported value) for this compound: c1ccc(CN2CCN(Cc3cc4ccccc4o3)CC2)cc1
8.28

Return pKi (reported value) for this compound: CCOc1ccc(CN2CCN(Cc3cc4ccccc4o3)CC2)cc1
7.97

Return pKi (reported value) for this compound: COc1ccccc1CN1CCN(Cc2cc3ccccc3o2)CC1
6.70

Return pKi (reported value) for this compound: FCCCOc1ccc(CN2CCN(Cc3cc4ccccc4o3)CC2)cc1
7.83
